system: OVCAR-5 ovarian; experiment: NCI tumour cell line growth inhibition, 48 h; in the data active = GI50 below about 0.43 µM; inactive = the rest
The reply should be one of these categories: 1 for active, 0 for inactive

query: Look up the recorded call for `Cc1cc(Nc2ncc(F)c(N[C@H]3[C@@H](C(N)=O)[C@@H]4C=C[C@H]3C4)n2)ccc1N1CCN(C)CC1` in this test.
result: 1

query: Look up the recorded call for COc1cc(C(C)c2ccc3c(ccn3C)c2)cc(OC)c1OC (centres undefined) in this test.
result: 1

query: Look up the recorded call for CC1SC(c2ccc(Cl)c(Cl)c2)N(NC(=O)C(O)c2ccccc2)C1=O (centres undefined) in this test.
result: 0

query: Look up the recorded call for `O=C(Nc1cccc(Cl)c1)Nc1cc2ncncc2cc1OCc1cccc(F)c1` in this test.
result: 0
